# credit: the NIST ThermoML archive (doi:10.1016/j.jct.2011.10.023)

assay setup: 348.15 K; 25000 kPa; Liquid; Vibrating tube method
Known mass density of a selection of compounds

compound | mass density (kg/m3)
CCCCCCCCCCCO [1-undecanol] | 810.8
CCCCCCO [hexan-1-ol] | 797.6
CCCCCCCCO [octan-1-ol] | 804.5
CCCCO [butan-1-ol] | 788
CCCO [propan-1-ol] | 781.3
CCCCCCCCCCO [decan-1-ol] | 808.8
CCCCCCCO [heptan-1-ol] | 801.4
CCCCCO [pentan-1-ol] | 793.3
CCO [ethanol] | 766.4
CCCCCCCCCO [nonan-1-ol] | 806.6

* * *

assay setup: 298.15 K; 100 kPa; Liquid; Vibrating tube method

smiles str | endpoint unit | mass density
CCCCCCCCCCCO | kg/m3 | 827.7
CCCCCCO | kg/m3 | 814.9
CCCO | kg/m3 | 799.8
CCCCCO | kg/m3 | 810.7
CCCCCCCCO | kg/m3 | 821.4
CCCCO | kg/m3 | 805.8
CCCCCCCCCO | kg/m3 | 823.2
CCO | kg/m3 | 784.8
CCCCCCCO | kg/m3 | 818.5
CCCCCCCCCCO | kg/m3 | 825.5

* * *

assay setup: 308.15 K; 45000 kPa; Liquid; Vibrating tube method

smiles str | endpoint unit | mass density
CCCCCCO | kg/m3 | 835.9
CCO | kg/m3 | 812
CCCCO | kg/m3 | 828.8
CCCO | kg/m3 | 824.1
CCCCCCCCO | kg/m3 | 841
CCCCCO | kg/m3 | 832.5
CCCCCCCCCCO | kg/m3 | 844.2
CCCCCCCCCCCO | kg/m3 | 845.9
CCCCCCCO | kg/m3 | 838.7
CCCCCCCCCO | kg/m3 | 842.4

* * *

assay setup: 288.15 K; 5000 kPa; Liquid; Vibrating tube method
measurement label: mass density (kg/m3)

smiles str | measurement label | result value
CCCCCCO | mass density | 825.3
CCCCCCCCCO | mass density | 832.7
CCCCCO | mass density | 821.5
CCCCCCCCCCO | mass density | 835.2
CCCCCCCCO | mass density | 831.5
CCCO | mass density | 811.6
CCCCCCCO | mass density | 828.6
CCCCO | mass density | 817
CCO | mass density | 797.6

* * *

Known mass density of a selection of compounds
assay setup: 288.15 K; 20000 kPa; Liquid; Vibrating tube method

smiles str | mass density, kg/m3
CCCCCCO | 834.6
CCCCCO | 831.1
CCCCCCCCO | 840.1
CCCO | 822.3
CCCCCCCO | 837.6
CCCCCCCCCCO | 843.5
CCO | 809.5
CCCCCCCCCO | 841.4
CCCCO | 827.2

* * *

Known mass density of a selection of compounds
assay setup: 278.15 K; 30000 kPa; Liquid; Vibrating tube method

smiles str | endpoint unit | mass density
CCCCCCCO | kg/m3 | 849.2
CCCCO | kg/m3 | 839.9
CCO | kg/m3 | 824
CCCCCCCCO | kg/m3 | 851.5
CCCCCCO | kg/m3 | 846.3
CCCO | kg/m3 | 835.7
CCCCCO | kg/m3 | 843.2
CCCCCCCCCO | kg/m3 | 852.8

* * *

Known mass density of a selection of compounds
assay setup: 298.15 K; 35000 kPa; Liquid; Vibrating tube method
Numbers after ± are expanded uncertainties.
measurement label: mass density

compound | result value
CCCCCO [pentan-1-ol] | 833.2 ± 2.4 kg/m3
CCCCCCCO [heptan-1-ol] | 839.5 ± 2.5 kg/m3
CCCO [propan-1-ol] | 824.8 ± 2.4 kg/m3
CCCCO [butan-1-ol] | 829.6 ± 2.4 kg/m3
CCCCCCCCO [octan-1-ol] | 841.8 ± 2.4 kg/m3
CCO [ethanol] | 812.5 ± 2.4 kg/m3
CCCCCCO [hexan-1-ol] | 836.6 ± 2.4 kg/m3
CCCCCCCCCO [nonan-1-ol] | 843.1 ± 2.5 kg/m3
CCCCCCCCCCO [decan-1-ol] | 845.1 ± 2.4 kg/m3
CCCCCCCCCCCO [1-undecanol] | 846.9 ± 2.4 kg/m3

* * *

Known mass density of a selection of compounds
assay setup: 338.15 K; 60000 kPa; Liquid; Vibrating tube method
measurement label: mass density (kg/m3)

compound | result value
CCCCCCO [hexan-1-ol] | 825.7
CCCCCCCCCO [nonan-1-ol] | 832.7
CCCCCCCO [heptan-1-ol] | 828.7
CCCCCCCCCCO [decan-1-ol] | 834.5
CCCCO [butan-1-ol] | 818.4
CCCCCO [pentan-1-ol] | 822.5
CCCCCCCCCCCO [1-undecanol] | 836
CCO [ethanol] | 800.8
CCCO [propan-1-ol] | 813.4
CCCCCCCCO [octan-1-ol] | 831.2

* * *

assay setup: 308.15 K; 10000 kPa; Liquid; Vibrating tube method

compound | mass density [kg/m3]
CCCCCCCCCO [nonan-1-ol] | 822.9
CCCCCCCCCCO [decan-1-ol] | 825
CCCCCCO [hexan-1-ol] | 814.8
CCCCCCCO [heptan-1-ol] | 818.3
CCCCCO [pentan-1-ol] | 810.7
CCCCCCCCCCCO [1-undecanol] | 827.1
CCCO [propan-1-ol] | 800.1
CCO [ethanol] | 785.4
CCCCO [butan-1-ol] | 805.9
CCCCCCCCO [octan-1-ol] | 821.1

* * *

assay setup: 348.15 K; 50000 kPa; Liquid; Vibrating tube method
measurement label: mass density (kg/m3)

smiles str | result value
CCCO | 800.1
CCCCCCCCCCO | 823.6
CCCCCCCCCCCO | 825.5
CCO | 786.9
CCCCCO | 810.3
CCCCCCO | 814
CCCCCCCCCO | 821.6
CCCCCCCO | 817.3
CCCCO | 805.8
CCCCCCCCO | 819.9

* * *

Known mass density of a selection of compounds
assay setup: 358.15 K; 15000 kPa; Liquid; Vibrating tube method

smiles str | endpoint unit | mass density
CCCCCCCO | kg/m3 | 787.1
CCCCO | kg/m3 | 771.7
CCCCCCCCCCO | kg/m3 | 795.3
CCCCCCCCCO | kg/m3 | 792.9
CCCCCO | kg/m3 | 777.9
CCCCCCO | kg/m3 | 782.8
CCO | kg/m3 | 747.7
CCCCCCCCO | kg/m3 | 790.4
CCCO | kg/m3 | 764
CCCCCCCCCCCO | kg/m3 | 797.6

* * *

Known mass density of a selection of compounds
assay setup: 308.15 K; 50000 kPa; Liquid; Vibrating tube method

smiles str | mass density [kg/m3]
CCCCCCO | 838.5
CCCCCO | 835.3
CCCCO | 831.7
CCCO | 827.1
CCCCCCCCCO | 844.8
CCCCCCCCCCCO | 848.3
CCCCCCCO | 841.3
CCO | 815.3
CCCCCCCCCCO | 846.6
CCCCCCCCO | 843.5

* * *

assay setup: 318.15 K; 20000 kPa; Liquid; Vibrating tube method
Known mass density of a selection of compounds

smiles str | endpoint unit | mass density
CCCCCCCCCCO | kg/m3 | 824.7
CCCCCCCCCO | kg/m3 | 822.7
CCCCCCO | kg/m3 | 814.7
CCO | kg/m3 | 786
CCCCCCCO | kg/m3 | 818.1
CCCCCCCCO | kg/m3 | 820.8
CCCCCO | kg/m3 | 810.7
CCCCCCCCCCCO | kg/m3 | 826.6
CCCO | kg/m3 | 800.2
CCCCO | kg/m3 | 805.6

* * *

assay setup: 348.15 K; 5000 kPa; Liquid; Vibrating tube method
Known mass density of a selection of molecules

smiles str | mass density, kg/m3
CCCCCCCCCCO | 794.8
CCCCCCCO | 786.3
CCCCO | 770.5
CCCCCCCCCCCO | 797.1
CCO | 745.6
CCCCCCCCO | 789.8
CCCO | 762.6
CCCCCO | 776.9
CCCCCCO | 782
CCCCCCCCCO | 792.3

* * *

assay setup: 348.15 K; 45000 kPa; Liquid; Vibrating tube method
± gives the expanded uncertainty stated by the source.
measurement label: mass density

smiles str | measurement label | result value
CCCCCO | mass density | 807.1 ± 2.5 kg/m3
CCCCCCCCCO | mass density | 818.8 ± 2.6 kg/m3
CCCCCCO | mass density | 811 ± 2.5 kg/m3
CCCCCCCCCCO | mass density | 820.8 ± 2.5 kg/m3
CCCCCCCCCCCO | mass density | 822.7 ± 2.5 kg/m3
CCCCCCCO | mass density | 814.3 ± 2.6 kg/m3
CCCCCCCCO | mass density | 817 ± 2.4 kg/m3
CCO | mass density | 783.1 ± 2.4 kg/m3
CCCCO | mass density | 802.5 ± 2.4 kg/m3
CCCO | mass density | 796.6 ± 2.5 kg/m3
